method: protein stability index of a GFP-peptide fusion (GPS, HEK-293T) (PSI 1-6); higher = more stable;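 further: 24-mer peptide tiles fused after GFP, lentivirally expressed, FACS-sorted into six equal bins by GFP/DsRed ratio, decoded by Illumina sequencing, PSI is the read-weighted mean bin number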
condition_description: treatment: MLN4924 1 uM, 8 h; c terminus: a fixed tail appended
Tag: true if measured protein stability index is not below 3, false if it is.

INSERT INTO measurements (input_sequence, discrete_label) VALUES
  ('NLNAATDDPENKKTSSSSKAGFTA [CDC14A]', 'true'),
  ('SLLSLPVWVLMDEDVRIFFYQSPY [NCF4]', 'false'),
  ('EPQPFVTSDVYSSDAAFGGILERY [MYORG]', 'true'),
  ('AEPLKEDKPVTGPRNKTENGLTPK [ATF6]', 'true'),
  ('DFWLNMAALTEALQRQAEQNPTAS [FCHO1]', 'false'),
  ('QTVPKRIPERLSIFCRDTQTVFQK [IQUB]', 'false'),
  ('PRRLGRLKYQAPDIDVQLSSELTD [NOP53]', 'true'),
  ('RVAHEPVAPPEDKESESEAKVDGE [CDS2]', 'true'),
  ('PLLMNRQRVPKVLVENAKNFPQCV [EFHC1]', 'false'),
  ('AAAQAPENFQEGKDMSESQDEVPD [TAF7L]', 'true'),
  ('VGAAETTLTELRRTVQSLEIDLDS [KRT18]', 'true'),
  ('FGATTNYGKDIVKACSLLDVAVHM [ZBED1]', 'false'),
  ('FCIPEHISPKARCLIRSLLRREPS [TRIB1]', 'false'),
  ('PQEEIATKKLRLTKPSKSAALHID [INTS4]', 'true'),
  ('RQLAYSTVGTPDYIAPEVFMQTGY [STK38L]', 'true'),
  ('KENKDVIQKNKLKLTREQEELEEA [MNAT1]', 'true'),
  ('ENKESWDKILALVPETIHDELQQS [PRIM1]', 'true'),
  ('AESQGCNHEEDAGVRCNTPAMGLQ [LOXL2]', 'true'),
  ('VAWHPVRPIIASISSGVVSIWAQN [RBBP5]', 'false');
